Ref: the supplement of paper PMC5844555

In this section, each of the sequences is paired with its reported 3' UTR reporter interaction score.
Tested on: EZH2
Experiment: 3' UTR reporter interaction score (median-centred robust z-score of log2 firefly/Renilla activity); higher = less repression of the 3' UTR reporter
Conditions: HEK293T; 48 h
Just the number, please.

Example entries begin here.
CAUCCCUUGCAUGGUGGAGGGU
0.459
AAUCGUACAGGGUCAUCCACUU
0.723
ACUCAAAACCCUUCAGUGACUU
0.495
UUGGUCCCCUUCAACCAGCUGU
1.28
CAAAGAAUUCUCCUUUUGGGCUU
-0.313
UAUUGCACAUUACUAAGUUGC
-1.18
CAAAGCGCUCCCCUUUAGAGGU
0.467
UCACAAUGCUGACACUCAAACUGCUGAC
0.195

Field request: 3' UTR reporter interaction score | item: `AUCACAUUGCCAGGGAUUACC`
0.0796

And then `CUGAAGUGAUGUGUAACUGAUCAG` , what is it?
0.809

Likewise for `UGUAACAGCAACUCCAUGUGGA` ?
-1.3

Continue with `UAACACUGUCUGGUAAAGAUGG`
-0.173

Lookup `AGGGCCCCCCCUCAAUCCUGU`
0.205

How about `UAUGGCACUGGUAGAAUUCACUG` ?
0.196

Try `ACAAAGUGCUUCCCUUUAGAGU` next.
-0.0342

What about this sequence? `GGGCGCCUGUGAUCCCAAC`
0.0894

----------
Measured 3' UTR reporter interaction score, listed per entry for reference.
Test system: MYB
Test: 3' UTR reporter interaction score (median-centred robust z-score of log2 firefly/Renilla activity); higher = less repression of the 3' UTR reporter
Conditions: HEK293T; 48 h
The answer should be a number; do not append a unit.

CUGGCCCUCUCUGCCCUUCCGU
0.857
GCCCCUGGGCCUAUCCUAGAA
0.244
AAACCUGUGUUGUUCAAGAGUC
-0.47

May I ask what 3' UTR reporter interaction score has been recorded for `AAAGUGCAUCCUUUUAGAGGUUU` ?
-1.97

Same question for `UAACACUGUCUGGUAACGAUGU` please.
0.219

Please do the same for `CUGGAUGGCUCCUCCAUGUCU` as well.
0.532

Note, next up: `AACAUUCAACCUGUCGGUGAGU`
1.08

What would you report for `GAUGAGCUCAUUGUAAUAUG` ?
0.0611

----------
System: RB1
Experiment: 3' UTR reporter interaction score (median-centred robust z-score of log2 firefly/Renilla activity); higher = less repression of the 3' UTR reporter
Conditions: HEK293T; 48 h
OUTCOME_MEASURE: 3' UTR reporter interaction score
Note: the reply should be a number with no unit written.

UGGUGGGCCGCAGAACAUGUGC
-1.35
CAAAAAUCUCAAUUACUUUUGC
-0.319
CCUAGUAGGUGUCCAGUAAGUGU
-1.08
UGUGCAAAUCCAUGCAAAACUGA
0.608
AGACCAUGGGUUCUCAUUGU
-1.2

I'm curious: which 3' UTR reporter interaction score was measured for `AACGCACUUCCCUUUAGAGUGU` tested on RB1?
1.02

Entry `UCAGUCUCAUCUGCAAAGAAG` please
0.581

Now consider `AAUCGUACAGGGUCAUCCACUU` and answer again.
-0.619

Repeat for the following sequence: `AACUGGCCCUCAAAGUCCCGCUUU`
1.12

What about `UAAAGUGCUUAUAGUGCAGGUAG` ?
0.204

# repeat for `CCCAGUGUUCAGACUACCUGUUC`
-1.81

Now this one: `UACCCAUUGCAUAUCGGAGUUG`
0.632

What do we get for `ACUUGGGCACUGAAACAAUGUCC` ?
0.0718

How about `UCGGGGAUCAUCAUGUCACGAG` ?
1.06

Further, for `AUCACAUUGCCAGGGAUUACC` ?
0.534

----------
Test system: PHF6
Assay: 3' UTR reporter interaction score (median-centred robust z-score of log2 firefly/Renilla activity); higher = less repression of the 3' UTR reporter
Conditions: HEK293T; 48 h
OUTCOME_MEASURE: 3' UTR reporter interaction score
Enter the number alone.

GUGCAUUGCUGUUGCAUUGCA
-0.271
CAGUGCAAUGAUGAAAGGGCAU
0.644
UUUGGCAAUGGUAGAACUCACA
-0.697
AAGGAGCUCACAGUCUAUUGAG
-0.478
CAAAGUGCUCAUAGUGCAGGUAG
0.651

Turning to the following sequence.
Which 3' UTR reporter interaction score is reported for this sequence? `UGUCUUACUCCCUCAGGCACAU`
2.68

----------
Test system: ZEB2
Experiment: 3' UTR reporter interaction score (median-centred robust z-score of log2 firefly/Renilla activity); higher = less repression of the 3' UTR reporter
Details: HEK293T; 48 h
Entry class follows 3' UTR reporter interaction score: Low (below 0.2), Medium (0.2 to below 0.6), High (0.6 or more)

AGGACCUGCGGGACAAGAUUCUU
Medium
CACGCUCAUGCACACACCCAC
High
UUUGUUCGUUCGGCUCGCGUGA
Low
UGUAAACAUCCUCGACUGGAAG
Low
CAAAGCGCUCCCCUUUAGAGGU
High

Kindly identify the class of `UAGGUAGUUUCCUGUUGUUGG` .
High

// query: `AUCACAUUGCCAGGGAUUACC`
High

Moving on to the next sequence: `UCUAGGCUGGUACUGCUGA`
Medium

Cool, now `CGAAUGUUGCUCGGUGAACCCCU`
Low

Next sequence up: `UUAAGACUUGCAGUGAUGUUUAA`
Low

Please give the result for `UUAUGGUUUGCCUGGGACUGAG` too.
Low

----------
The following sequences are listed with their measured 3' UTR reporter interaction score values.
Test system: MYB
Assay: 3' UTR reporter interaction score (median-centred robust z-score of log2 firefly/Renilla activity); higher = less repression of the 3' UTR reporter
Details: HEK293T; 48 h

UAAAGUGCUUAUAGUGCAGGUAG
-0.124
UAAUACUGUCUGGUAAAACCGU
-2.29
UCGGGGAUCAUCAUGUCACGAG
-0.226
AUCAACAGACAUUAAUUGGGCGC
0.0314
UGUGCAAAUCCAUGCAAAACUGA
-1.86
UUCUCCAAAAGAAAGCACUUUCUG
-0.561
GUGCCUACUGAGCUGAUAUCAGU
0.61
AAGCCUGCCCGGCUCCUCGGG
0.0778
AAACAAACAUGGUGCACUUCUUU
0.209
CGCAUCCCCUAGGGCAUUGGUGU
-0.38

Query: 3' UTR reporter interaction score; subject: `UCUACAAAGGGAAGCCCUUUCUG`
0.56

Same for `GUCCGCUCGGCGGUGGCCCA`
0.218

Also `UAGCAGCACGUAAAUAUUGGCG` , if possible.
0.8

And the next one, `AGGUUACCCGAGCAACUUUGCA` ?
1.71

How about `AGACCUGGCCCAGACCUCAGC` ?
0.0206

----------
System: ZEB2
Experiment: 3' UTR reporter interaction score (median-centred robust z-score of log2 firefly/Renilla activity); higher = less repression of the 3' UTR reporter
Details: HEK293T; 48 h
OUTCOME_MEASURE: 3' UTR reporter interaction score
Just the number, please.

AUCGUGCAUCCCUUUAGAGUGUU
-2.08

Which 3' UTR reporter interaction score value is on record for `UCUACAGUGCACGUGUCU` ?
0

Param item: `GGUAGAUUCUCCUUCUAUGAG`
0.717

Queued: `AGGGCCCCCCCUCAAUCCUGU`
1.65

Try `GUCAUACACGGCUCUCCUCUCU` next.
0.639

Proceed to `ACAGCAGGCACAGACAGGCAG`
1.63

Entry to check: `UGGGCGUAUCUGUAUGCUA`
2.53

----------
Test system: MYT1L
Assay: 3' UTR reporter interaction score (median-centred robust z-score of log2 firefly/Renilla activity); higher = less repression of the 3' UTR reporter
Settings: HEK293T; 48 h
The label depends only on 3' UTR reporter interaction score: true (1) if it is at least -0.2, false (0) if it is smaller.

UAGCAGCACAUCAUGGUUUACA
false (0)
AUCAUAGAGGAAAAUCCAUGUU
true (1)
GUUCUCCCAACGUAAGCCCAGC
true (1)
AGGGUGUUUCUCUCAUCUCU
false (0)
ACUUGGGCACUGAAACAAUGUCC
true (1)

Item `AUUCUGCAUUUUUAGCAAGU` with 3' UTR reporter interaction score of -0.2 or above?
false (0)

Further, for `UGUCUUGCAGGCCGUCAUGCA` ?
true (1)

And the next one, `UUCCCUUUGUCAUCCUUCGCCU` ?
false (0)
